molecular target: Protein-glutamine gamma-glutamyltransferase (Homo sapiens); assay: Irreversible inhibition of human recombinant tissue transglutaminase expressed in Escherichia coli using Cbz-Glu-(gamma-p-nitrophenylester)Gly (AL5) as substrate assessed as substrate hydrolysis by measuring KI incubated for 20 mins by colorimetric analysis
Sequence (P21980 whole entry): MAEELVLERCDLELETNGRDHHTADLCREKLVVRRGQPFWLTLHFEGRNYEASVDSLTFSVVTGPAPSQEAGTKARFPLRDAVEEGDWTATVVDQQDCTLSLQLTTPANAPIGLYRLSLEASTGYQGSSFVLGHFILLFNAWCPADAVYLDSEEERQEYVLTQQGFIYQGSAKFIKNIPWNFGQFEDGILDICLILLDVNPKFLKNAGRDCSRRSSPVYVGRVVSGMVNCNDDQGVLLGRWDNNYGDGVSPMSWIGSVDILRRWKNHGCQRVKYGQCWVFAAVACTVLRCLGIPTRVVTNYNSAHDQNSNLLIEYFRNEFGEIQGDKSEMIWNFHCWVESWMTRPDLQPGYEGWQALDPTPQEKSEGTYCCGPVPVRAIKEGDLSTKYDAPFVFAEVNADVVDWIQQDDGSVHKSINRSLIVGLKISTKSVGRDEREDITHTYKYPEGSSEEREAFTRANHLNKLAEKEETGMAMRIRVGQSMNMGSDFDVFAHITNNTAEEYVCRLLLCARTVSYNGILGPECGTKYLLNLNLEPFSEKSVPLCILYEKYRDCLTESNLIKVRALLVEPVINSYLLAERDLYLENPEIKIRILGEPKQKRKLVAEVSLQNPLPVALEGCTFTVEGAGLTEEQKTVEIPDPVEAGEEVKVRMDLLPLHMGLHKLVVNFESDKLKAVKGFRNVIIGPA
Category | rule: reported Ki within range, see Low (below 9 µM), Mid (9 µM to below 60 µM), High (60 µM or more)

INSERT INTO measurements (compound, class_label) VALUES
  ('C#CC(=O)NCC(=O)N1CCN(C(=O)C23CC4CC(CC(C4)C2)C3)CC1', 'High'),
  ('C=C(Br)C(=O)NCC(=O)N1CCN(C(=O)C23CC4CC(CC(C4)C2)C3)CC1', 'Low'),
  ('C[S+]([O-])CCCCN=C=S (stereo unspecified) [SULFORAPHANE]', 'High');

Incoming: Kindly identify the class of C=C(C(=O)NCC(=O)N1CCN(C(=O)C23CC4CC(CC(C4)C2)C3)CC1)C(F)(F)F .
Outgoing: Mid

Incoming: Kindly identify the class of O=C(CCl)NCC(=O)N1CCN(C(=O)C23CC4CC(CC(C4)C2)C3)CC1 .
Outgoing: Low

Incoming: Kindly identify the class of [N-]=[N+]=CC(=O)NCC(=O)N1CCN(C(=O)C23CC4CC(CC(C4)C2)C3)CC1 .
Outgoing: Mid

Incoming: Kindly identify the class of O=C(NCC(=O)N1CCN(C(=O)C23CC4CC(CC(C4)C2)C3)CC1)C(F)Cl (stereo unspecified) .
Outgoing: High

Incoming: Kindly identify the class of C=C(Cl)C(=O)NCC(=O)N1CCN(C(=O)C23CC4CC(CC(C4)C2)C3)CC1 .
Outgoing: Low

Incoming: Kindly identify the class of C=C(F)C(=O)NCC(=O)N1CCN(C(=O)C23CC4CC(CC(C4)C2)C3)CC1 .
Outgoing: Mid

====

test: Metabolic stability in pooled cryopreserved human hepatocytes assessed as half-life at 1 uM measured upto 120 mins by LC-MS/MS analysis; type: ADME, cell-based, Hepatocyte
Recorded half-life at 1 µM values for a group of molecules are listed next.

These recorded examples may help you get a feel for the data.
INSERT INTO results (test_smiles, test_value) VALUES
  ('O=C(CCl)NCC(=O)N1CCN(C(=O)C23CC4CC(CC(C4)C2)C3)CC1', '> 2 h'),
  ('C=C(Cl)C(=O)NCC(=O)N1CCN(C(=O)C23CC4CC(CC(C4)C2)C3)CC1', '1.53 h');

# evaluate next
Incoming: What value of measured half-life at 1 µM is listed for C=CC(=O)NCC(=O)N1CCN(C(=O)C23CC4CC(CC(C4)C2)C3)CC1 ?
Outgoing: > 2 h

====

Recorded half-life at up to 5 µM values for a group of compounds are listed next.
assay: Metabolic stability in human whole blood assessed as half-life at 1 to 5 uM measured upto 120 mins by LC-MS/MS analysis; type: ADME, tissue-based; conditions: dose 1-5 µM

These recorded examples may help you get a feel for the data.
INSERT INTO measurements (test_smiles, measure_name, test_value) VALUES
  ('C=C(Cl)C(=O)NCC(=O)N1CCN(C(=O)C23CC4CC(CC(C4)C2)C3)CC1', 'half-life at up to 5 µM', '0.533 h'),
  ('O=C(CCl)NCC(=O)N1CCN(C(=O)C23CC4CC(CC(C4)C2)C3)CC1', 'half-life at up to 5 µM', '> 2 h');

Incoming: What value of measured half-life at up to 5 µM is listed for C=CC(=O)NCC(=O)N1CCN(C(=O)C23CC4CC(CC(C4)C2)C3)CC1 ?
Outgoing: > 2 h
